Kindly state GI50 for each of the entries shown.
Tested on: UO-31
test.description: NCI tumour cell line growth inhibition, 48 h
Activity calls are given as the source filed them. Cut-off read from the data, not from the text of the source: active = GI50 up to about 1.1 µM and inactive = higher.

Query c1csc(-c2cc(-c3ccsc3)cs2)c1 on UO-31; GI50 returned: 78.2 µM (inactive)

Query CN(Cc1cnc2nc(N)nc(N)c2n1)c1ccc(C(=O)NC(CCS(=O)(=O)O)C(=O)O)cc1 (centres undefined) on UO-31; GI50 returned: 2.72 µM (inactive)

Query CCC(=O)Nc1cccc(/N=C/c2ccc(OC(=O)/C=C\c3ccccc3)cc2)c1 on UO-31; GI50 returned: 51.2 µM (inactive)

Query NC(=O)N/N=C(\CCC(=O)N(Cc1ccccc1)Cc1ccccc1)CC(=O)c1ccc(F)cc1 on UO-31; GI50 returned: > 100 µM (inactive)

Query CCSC1=N/C(=C\c2ccco2)C(=O)N1 on UO-31; GI50 returned: > 100 µM (inactive)

Query O=C1CC2SC(COCc3ccccc3)(CCN2Cc2ccccc2)C1 (centres undefined) on UO-31; GI50 returned: 34.7 µM (inactive)

Query O=C(c1ccccc1)c1cc[n+](C2=C([N-]S(=O)(=O)c3ccccc3)C(=O)c3ccccc3C2=O)cc1 on UO-31; GI50 returned: 11.7 µM (inactive)

Query COc1ccc(C2=Nn3c(nnc(Cc4ccc(Cl)cc4)c3=O)SC2)cc1 on UO-31; GI50 returned: 52.1 µM (inactive)

Query O=P(c1ccccc1)(c1ccccc1)C1CC=C2CCCCCC2C1 (centres undefined) on UO-31; GI50 returned: 21.8 µM (inactive)

* * *

Tested on: EKVX
test.description: NCI tumour cell line growth inhibition, 48 h
The source made the active and inactive calls. Cut-off read from the data, not from the text of the source: active = GI50 up to about 1.1 µM and inactive = higher.
Kindly state GI50 for each of the entries shown.

Query N=C(N)N/N=C/c1c(Cl)nc2n1CCS2 on EKVX; GI50 returned: > 100 µM (inactive)

Query O=c1c(/C=C/c2c(O)ccc3ccccc23)nnc2sc(-c3cccc([N+](=O)[O-])c3)nn12 on EKVX; GI50 returned: 18.7 µM (inactive)

Query CCOC(=O)/C(=C/c1ccc(Cl)cc1)N(CC)CC on EKVX; GI50 returned: > 100 µM (inactive)

Query O=c1[nH]cc(COCCCO)c(=O)[nH]1 on EKVX; GI50 returned: > 100 µM (inactive)

Query O=C(CCCl)NN=C1NCCCCN1 on EKVX; GI50 returned: > 100 µM (inactive)

Query Ic1ccc2c(c1)N(c1ccccc1)c1cc([N-]c3ccc4nc5ccc(I)cc5[n+](-c5ccccc5)c4c3)ccc1N2 on EKVX; GI50 returned: 32.2 µM (inactive)

Query c1csc(-c2cc(-c3ccsc3)cs2)c1 on EKVX; GI50 returned: 52.7 µM (inactive)

Query O=[N+]([O-])c1cccc(C2=NN(c3ccccc3)C[N+](c3ccc(Br)cc3)=N2)c1 on EKVX; GI50 returned: > 100 µM (inactive)

Query Cc1nc2cc(Cl)c(N)cc2[nH]1 on EKVX; GI50 returned: > 100 µM (inactive)

Query CC(C)(CN1CCCCC1)C(=O)/C=C/c1ccc(/C=C/C(=O)C(C)(C)CN2CCCCC2)cc1 on EKVX; GI50 returned: 1.71 µM (inactive)

Query O=C(NCCc1ccccc1)c1c(O)nc2ccccc2c1O on EKVX; GI50 returned: > 100 µM (inactive)

Query N#CC12CC=C(c3ccccc3)N=C1NC(c1ccccc1)=CC2 (centres undefined) on EKVX; GI50 returned: 52.2 µM (inactive)

Query CN1C(=O)c2c(c3c4ccccc4n(C4OC(CO)C(O)C(O)C4O)c3c3[nH]c4ccccc4c23)C1=O (centres undefined) on EKVX; GI50 returned: 3.02 µM (inactive)

Query CCCCc1c2c([n+]([O-])c3c1CCCC3)CCCC2 on EKVX; GI50 returned: > 100 µM (inactive)

Values were extracted from ChEMBL document CHEMBL1201862.
